Below, each entry is listed alongside its reported IC50.
- assayTarget: soybean lipoxygenase (isozyme LOX-1) (Glycine max, UniProt P08170)
- Construct: purchased Sigma Chemical, Co. (St. Louis, MO, USA)
- Sequence (P08170 whole entry): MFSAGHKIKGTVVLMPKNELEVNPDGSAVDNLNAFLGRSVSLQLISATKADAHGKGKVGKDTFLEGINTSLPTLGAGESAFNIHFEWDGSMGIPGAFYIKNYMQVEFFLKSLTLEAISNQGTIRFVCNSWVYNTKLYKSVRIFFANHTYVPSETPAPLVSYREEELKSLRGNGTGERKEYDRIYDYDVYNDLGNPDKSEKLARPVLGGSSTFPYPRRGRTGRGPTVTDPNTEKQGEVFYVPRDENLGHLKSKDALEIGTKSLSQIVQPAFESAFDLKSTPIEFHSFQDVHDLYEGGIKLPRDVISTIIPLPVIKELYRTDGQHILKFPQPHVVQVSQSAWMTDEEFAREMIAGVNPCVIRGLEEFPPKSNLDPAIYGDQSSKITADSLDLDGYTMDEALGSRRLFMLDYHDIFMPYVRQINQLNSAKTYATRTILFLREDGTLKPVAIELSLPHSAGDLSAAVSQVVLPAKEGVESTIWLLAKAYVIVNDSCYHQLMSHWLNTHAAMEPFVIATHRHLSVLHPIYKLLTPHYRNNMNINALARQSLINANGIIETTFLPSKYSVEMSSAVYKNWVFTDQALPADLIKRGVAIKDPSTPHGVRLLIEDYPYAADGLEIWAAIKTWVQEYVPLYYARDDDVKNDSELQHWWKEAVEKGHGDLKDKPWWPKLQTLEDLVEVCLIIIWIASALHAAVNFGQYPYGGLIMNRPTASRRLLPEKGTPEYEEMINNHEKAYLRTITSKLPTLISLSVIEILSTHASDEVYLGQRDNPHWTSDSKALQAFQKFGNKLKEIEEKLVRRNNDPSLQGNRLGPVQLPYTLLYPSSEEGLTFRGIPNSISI
- procedureDetails: Soybean lipoxygenase inhibition study
- Assay type: biochemical
- setupConditions: soybean lipoxygenase, sodium linoleate substrate; read-out: LOX IC50 (μM) ± SEM
The figure you give is taken to be in µM; do not add the unit.

{"columns": ["compound", "IC50 [µM]"],
 "data": [
  ["O=C1/C(=C/c2cccc3ccccc23)CC/C1=C\\c1cccc2ccccc12", 14],
  ["S=C1/C(=C/c2ccccc2)CNC/C1=C\\c1ccccc1", 10]
]}

Q. Recorded IC50 of O=C1/C(=C/c2cccc3ccccc23)CSC/C1=C\c1cccc2ccccc12 , please.
A. 57.5

Q. Recorded IC50 of O=C1/C(=C/c2ccccc2)CN(C(=O)/C=C/c2cccc3ccccc23)C/C1=C\c1ccccc1 , please.
A. 55
